tested on: Listeria monocytogenes (ATCC-15313); test: MIC by agar-dilution method against Listeria monocytogenes; format: cell-based; conditions: Listeria monocytogenes ATCC-15313; agar dilution, 37 °C, 24 h
endpoint name: MIC L.m (µg/mL)
Give just the numeric value; µg/mL need not be written.

# annotated cases, reported MIC L.m shown
- structure smiles string: "Cc1nn(-c2ccc(F)cc2)c(Cl)c1C(=O)Oc1ncn(-c2ccc(Cl)cc2)n1"
  MIC L.m / µg/mL: 64
- structure smiles string: "Cc1nn(-c2ccc(Cl)cc2)c(Cl)c1C(=O)Oc1ncn(-c2ccc(Cl)cc2)n1"
  MIC L.m / µg/mL: 64

Turning now to a further compound:
Reported MIC L.m ( Cc1ccc(-n2nc(C)c(C(=O)Oc3ncn(-c4ccc(F)cc4)n3)c2Cl)cc1 ) = 16

All values here come from paper PMC6480153.
